Molecular target: hCB2 receptor (Homo sapiens (Human), UniProt P34972)
Assay: hCB2 competition-equilibrium binding with [3H]CP-55,940, membranes of HEK293 cells expressing hCB2
Settings: HEK293 cells expressing hCB2, [3H]CP-55,940; read-out: hCB2 Ki
Description: HEK293 cells expressing hCB1 or hCB2 or mCB2 receptor are used for membrane preparations according to Abadji et al. The resulting pellet is resuspended in 10 mM Tris-chloride, pH 7.4, with 5 mM MgCl2 and 2 mM EDTA (TME), rapidly frozen in liquid nitrogen and stored at −80° C. for no longer than two months. Protein content is assayed by using the Bio-Rad protein assay according to the manufacturer's protocol. […]
parameter: pKi
Answers are plain numbers, as −log10 of the molar value.

The cases that follow already have their pKi on record.
[
  {
    "compound": "CCOC(=O)C(C)(C)c1cc(O)c(-c2cc(Cl)cc(Cl)c2)c(O)c1 [Compound 4.8]",
    "recorded-number": 7.68
  },
  {
    "compound": "CCCCOC(=O)C(C)c1cc(O)c2c(c1)OC(C)(C)[C@@H]1CC=C(C)C[C@@H]21 (stereo partly shown) [Compound 1.12]",
    "recorded-number": 9.00
  },
  {
    "compound": "CCOC(=O)C(C)(C)c1cc(O)c(-c2cc(Cl)cc(Cl)c2)c(OC)c1 [Compound 4.7]",
    "recorded-number": 6.15
  },
  {
    "compound": "CCOC(=O)C(C)(C)c1cc(O)c(-c2cccc(C#N)c2)c(O)c1 [Compound 4.2]",
    "recorded-number": 7.02
  },
  {
    "compound": "CC1=CC[C@@H]2[C@@H](C1)c1c(O)cc(CC(=O)OCCCCC#N)cc1OC2(C)C [Compound 1.28]",
    "recorded-number": 8.92
  },
  {
    "compound": "CC1=CC[C@H]2[C@@H](C1)c1c(O)cc(C(C)(C)C(=O)OCCCCCBr)cc1OC2(C)C [Compound 1.5]",
    "recorded-number": 9.22
  },
  {
    "compound": "CCCCOC(=O)C1(c2cc(O)c3c(c2)OC(C)(C)[C@@H]2CC=C(C)C[C@@H]32)CCC1 [Compound 1.20]",
    "recorded-number": 9.40
  },
  {
    "compound": "CCCCOC(=O)[C@@H](C)c1cc(O)c2c(c1)OC(C)(C)[C@@H]1CC=C(C)C[C@@H]21 [Compound 1.16]",
    "recorded-number": 8.82
  }
]

Consider the following items and state reported pKi for each.
1. CCCCOC(=O)Cc1cc(O)c2c(c1)OC(C)(C)[C@@H]1CC=C(C)C[C@@H]21 [Compound 1.29]
2. CCOC(=O)C(C)(C)c1cc(OC)c(-c2cc(Cl)cc(Cl)c2)c(OC)c1 [Compound 4.6]
3. CCCCOC(=O)[C@H](C)c1cc(O)c2c(c1)OC(C)(C)[C@@H]1CC=C(C)C[C@@H]21 [Compound 1.14]
4. CCOC(=O)C(C)(C)c1cc(O)c(-c2cc(C)cc(C)c2)c(OC)c1 [Compound 4.5]
5. CCOC(=O)C(C)(C)c1cc(O)c(-c2cc(C)cc(C)c2)c(O)c1 [Compound 4.4]

1. 8.09
2. 6.00
3. 8.85
4. 6.43
5. 7.31

Data origin: patent US10882838B2
